Molecular target: T1, recombinant human sc-uPA (human, UniProt P00749 21-431)
T1 construct: 411 amino acid single-chain zymogen expressed in HEK293; the 20-residue signal peptide is not present in the mature protein; also called human single-chain uPA; pro-uPA
Assay: SPR, mAb immobilised
Protocol: The binding affinity to recombinant human sc-uPA protein (SEQ ID NO:1) was measured by surface plasmon resonance (SPR). The experiments were performed on a Biacore™ instrument (GE Healthcare) and analysed with the BIAcore 4000 Evaluation Software. […] Binding curves were measured at 25° C. with a flow rate of 30 μL/min. […] Binding affinities were calculated and are stated in Table 17 below.
propertyLabel: log10 of Kd (log10 of the value in nM)
Use the decimal logarithm of Kd (nM).

Documented log10 of Kd of rec0266-0000-0010-VH_G96S (antibody, mouse IgG1, V domains shown) VH: DVKLVESGGGLVKPGGSLKLSCVASGFTFSSYTMSWVRQTPEKRLEWVATISGGGSHIYYADSVKGRFTISRDNAKNTLYLQMSSLKSEDTAIYYCTRDSRDGSWFAYWGQGTLVTVSA VL: DIVMTQSPATLSVTPGDRVSLSCRTSQSIGDYLHWYQQKSHESPRLLIKYVSQSISGIPSRFSGSGSGSDFTLSINSVESEDVGVYYCQNSHSFPLTFGSGTKLELKR : 0.11

According to the records, this binder rec0266-0000-0010-VH_G99V (antibody, mouse IgG1, V domains shown) VH: DVKLVESGGGLVKPGGSLKLSCVASGFTFSSYTMSWVRQTPEKRLEWVATISGGGSHIYYADSVKGRFTISRDNAKNTLYLQMSSLKSEDTAIYYCTRDGRDVSWFAYWGQGTLVTVSA VL: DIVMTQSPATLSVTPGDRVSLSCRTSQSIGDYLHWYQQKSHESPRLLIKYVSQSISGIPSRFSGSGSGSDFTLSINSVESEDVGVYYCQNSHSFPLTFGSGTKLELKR displays log10 of Kd of 0.40

Looking up rec0266-0000-0010-VH_D98G (antibody, mouse IgG1, V domains shown) VH: DVKLVESGGGLVKPGGSLKLSCVASGFTFSSYTMSWVRQTPEKRLEWVATISGGGSHIYYADSVKGRFTISRDNAKNTLYLQMSSLKSEDTAIYYCTRDGRGGSWFAYWGQGTLVTVSA VL: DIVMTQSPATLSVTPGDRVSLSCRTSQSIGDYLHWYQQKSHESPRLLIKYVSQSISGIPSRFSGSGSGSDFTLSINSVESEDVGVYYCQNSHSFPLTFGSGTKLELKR , I found its log10 of Kd recorded as 0.38

Form: binder = rec0266-0000-0010-VH_D98R (antibody, mouse IgG1, V domains shown) VH: DVKLVESGGGLVKPGGSLKLSCVASGFTFSSYTMSWVRQTPEKRLEWVATISGGGSHIYYADSVKGRFTISRDNAKNTLYLQMSSLKSEDTAIYYCTRDGRRGSWFAYWGQGTLVTVSA VL: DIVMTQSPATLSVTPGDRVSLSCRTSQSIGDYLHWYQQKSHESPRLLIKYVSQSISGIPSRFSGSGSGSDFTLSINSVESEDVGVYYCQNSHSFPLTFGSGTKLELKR ; log10 of Kd = 0.04

Recorded log10 of Kd (binder rec0266-0000-0010-VH_G99S (antibody, mouse IgG1, V domains shown) VH: DVKLVESGGGLVKPGGSLKLSCVASGFTFSSYTMSWVRQTPEKRLEWVATISGGGSHIYYADSVKGRFTISRDNAKNTLYLQMSSLKSEDTAIYYCTRDGRDSSWFAYWGQGTLVTVSA VL: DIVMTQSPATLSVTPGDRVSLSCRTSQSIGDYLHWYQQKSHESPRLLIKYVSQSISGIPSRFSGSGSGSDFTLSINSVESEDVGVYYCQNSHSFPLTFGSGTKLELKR ): -0.39

Reported log10 of Kd for rec0266-0000-0010-VH_D98S (antibody, mouse IgG1, V domains shown) VH: DVKLVESGGGLVKPGGSLKLSCVASGFTFSSYTMSWVRQTPEKRLEWVATISGGGSHIYYADSVKGRFTISRDNAKNTLYLQMSSLKSEDTAIYYCTRDGRSGSWFAYWGQGTLVTVSA VL: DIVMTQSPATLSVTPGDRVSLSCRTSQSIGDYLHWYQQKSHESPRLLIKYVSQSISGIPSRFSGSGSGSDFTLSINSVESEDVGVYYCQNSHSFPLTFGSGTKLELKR was 1.15

log10 of Kd recorded for this binder, rec0266-0000-0010-VH_G99F (antibody, mouse IgG1, V domains shown) VH: DVKLVESGGGLVKPGGSLKLSCVASGFTFSSYTMSWVRQTPEKRLEWVATISGGGSHIYYADSVKGRFTISRDNAKNTLYLQMSSLKSEDTAIYYCTRDGRDFSWFAYWGQGTLVTVSA VL: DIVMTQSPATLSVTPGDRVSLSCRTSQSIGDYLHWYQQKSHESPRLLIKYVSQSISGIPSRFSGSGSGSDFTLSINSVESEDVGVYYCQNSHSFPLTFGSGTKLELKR , is 0.23

Entry rec0266-0000-0010-VH_D95L (antibody, mouse IgG1, V domains shown) VH: DVKLVESGGGLVKPGGSLKLSCVASGFTFSSYTMSWVRQTPEKRLEWVATISGGGSHIYYADSVKGRFTISRDNAKNTLYLQMSSLKSEDTAIYYCTRLGRDGSWFAYWGQGTLVTVSA VL: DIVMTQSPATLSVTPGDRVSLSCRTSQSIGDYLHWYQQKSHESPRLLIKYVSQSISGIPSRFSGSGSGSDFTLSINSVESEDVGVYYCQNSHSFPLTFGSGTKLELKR , log10 of Kd reported as 0.67

Field log10 of Kd (entry rec0266-0000-0010-VH_G96N (antibody, mouse IgG1, V domains shown) VH: DVKLVESGGGLVKPGGSLKLSCVASGFTFSSYTMSWVRQTPEKRLEWVATISGGGSHIYYADSVKGRFTISRDNAKNTLYLQMSSLKSEDTAIYYCTRDNRDGSWFAYWGQGTLVTVSA VL: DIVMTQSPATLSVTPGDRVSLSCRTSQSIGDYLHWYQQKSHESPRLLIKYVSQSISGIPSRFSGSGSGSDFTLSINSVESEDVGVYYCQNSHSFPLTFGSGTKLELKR ) reads 1.32

For reference, reported log10 of Kd for rec0266-0000-0010-VH_D95H (antibody, mouse IgG1, V domains shown) VH: DVKLVESGGGLVKPGGSLKLSCVASGFTFSSYTMSWVRQTPEKRLEWVATISGGGSHIYYADSVKGRFTISRDNAKNTLYLQMSSLKSEDTAIYYCTRHGRDGSWFAYWGQGTLVTVSA VL: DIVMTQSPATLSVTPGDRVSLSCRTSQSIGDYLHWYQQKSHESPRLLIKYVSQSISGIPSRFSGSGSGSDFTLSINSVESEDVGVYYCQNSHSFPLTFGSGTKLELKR stands at 0.81
